The reported numbers originate from patent US9981940B2.

Test: log P by HPLC (OECD Guideline 117), method [a] acidic range
Format: physicochemical
Conditions: HPLC, method [a] acidic range
READOUT_LABEL: logP[a]

In the examples that follow, each entry is paired with its recorded logP[a].
{"COMPOUND": "CCCn1c(OC)nn(-c2cc([S+]([O-])CC(F)(F)F)c(C)cc2F)c1=O (stereo not shown)", "logP[a]": 2.44}
{"COMPOUND": "CCSc1nn(-c2cc([S+]([O-])CC(F)(F)F)c(C)cc2F)c(=O)n1CC (racemic)", "logP[a]": 2.76}
{"COMPOUND": "COc1nn(-c2cc(SCC(F)(F)F)c(F)cc2F)c(=O)n1C1CC1", "logP[a]": 2.97}
{"COMPOUND": "Cc1cc(F)c(-n2nc(SCC(F)(F)F)n(C)c2=O)cc1[S+]([O-])CC(F)(F)F (racemic)", "logP[a]": 2.57}
{"COMPOUND": "Cc1ccc(-n2nc(OCc3ccccc3)n(C)c2=O)cc1[S+]([O-])CC(F)(F)F (stereo not shown)", "logP[a]": 3.23}
{"COMPOUND": "CC1=C(C)C(=O)N(c2cc(SCC(F)(F)F)c(C)cc2C)C1=O", "logP[a]": 3.73}
{"COMPOUND": "Cc1cc(F)c(-n2ncoc2=O)cc1SCC(F)(F)F", "logP[a]": 2.85}
{"COMPOUND": "CCc1nn(-c2cc([S+]([O-])CC(F)(F)F)c(C)cc2F)c(=O)n1-c1cccnc1 (racemic)", "logP[a]": 1.98}
{"COMPOUND": "COc1nn(-c2cc([S+]([O-])CC(F)(F)F)c(C)cc2F)c(=O)n1C(C)C (stereo not shown)", "logP[a]": 2.44}
{"COMPOUND": "Cc1cc(F)c(-n2nc(C(C)C)n(N)c2=O)cc1S(=O)(=O)CC(F)(F)F", "logP[a]": 2.25}

1 = Cc1cc(F)c(-n2nc(C(C)(C)C)n(C3CC3)c2=O)cc1[S+]([O-])CC(F)(F)F (racemic)
2 = Cc1cc(F)c(-n2nc(Cl)n(C)c2=O)cc1[S+]([O-])CC(F)(F)F (stereo not shown)
3 = CCC(C)c1nn(-c2cc(SCC(F)(F)F)c(C)cc2F)c(=S)n1C1CC1 (stereo not shown)
input: Falling order of logP[a], please. List labels; respect the requested ordering.
output: 3, 1, 2
(3: 4.46, 1: 2.95, 2: 2.00)

---

Assay: log P by HPLC (OECD Guideline 117), method [a] acidic range
Assay type: physicochemical
Settings: HPLC, method [a] acidic range
READOUT_LABEL: logP[a]

Previously resolved entries follow.
{"COMPOUND": "CCn1c([S+]([O-])CC)nn(-c2cc(SCC(F)(F)F)c(C)cc2F)c1=O (stereo not drawn)", "logP[a]": 2.84}
{"COMPOUND": "C=CCSc1nn(-c2cc(SCC(F)(F)F)c(C)cc2F)c(=O)n1C", "logP[a]": 3.62}
{"COMPOUND": "COC1=CC(=O)N(c2ccc(C)c([S+]([O-])CC(F)(F)F)c2)C1 (racemic)", "logP[a]": 1.90}

A = Cc1cc(F)c(-n2nc([S+](C)[O-])n(C3CC3)c2=O)cc1SCC(F)(F)F (stereo not drawn)
B = CCCOc1nn(-c2cc(SCC(F)(F)F)c(C)cc2F)c(=O)n1CC
input: So which one has the bigger logP[a] here, A or B ? // return label of chosen record
output: B
(B: 4.06, A: 2.45)
